Where these numbers come from: patent US4845221A

Target: 5-HT-1A serotonin receptor (Rattus norvegicus, UniProt P19327)
Construct: 44: 1685-1696, 1985; from tissue
Sequence (P19327 whole entry): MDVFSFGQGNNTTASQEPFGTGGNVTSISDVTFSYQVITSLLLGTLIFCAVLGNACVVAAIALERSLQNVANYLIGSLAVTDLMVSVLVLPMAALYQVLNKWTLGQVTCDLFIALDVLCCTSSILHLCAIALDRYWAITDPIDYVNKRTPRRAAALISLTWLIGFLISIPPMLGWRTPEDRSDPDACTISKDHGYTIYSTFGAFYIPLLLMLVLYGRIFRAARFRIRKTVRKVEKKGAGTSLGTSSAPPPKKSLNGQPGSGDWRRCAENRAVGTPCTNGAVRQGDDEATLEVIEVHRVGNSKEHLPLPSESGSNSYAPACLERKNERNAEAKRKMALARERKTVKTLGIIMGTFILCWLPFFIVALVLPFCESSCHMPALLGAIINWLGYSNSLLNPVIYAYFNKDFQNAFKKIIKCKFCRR
Assay: displacement of [3H]8-OH DPAT from the 5-HT-1A serotonin receptor
Assay type: binding
Settings: 1 μM; [3H]8-OH DPAT; read-out: % Inhibition 1 μm 5 HT1A
recorded.endpoint: inhibition at 1 µM (%)

Observe how each entry below is paired with its result.
COc1cccc2c1CC(N1CCN(c3ncccn3)CC1)CC2 (stereo not drawn) [Compound 3]; 84.6
COc1ccc2c(c1)CC(N1CCN(c3cccc(C(F)(F)F)c3)CC1)CC2 (stereo not drawn) [Compound 6]; 77
COc1cccc2c1CC(N1CCN(c3cccc(C(F)(F)F)c3)CC1)CC2 (stereo not drawn) [Compound 1]; 97
Oc1ccc2c(c1)CCC(N1CCN(c3ncccn3)CC1)C2 (stereo not drawn) [Compound 12]; 15
Oc1cccc2c1CC(N1CCN(c3cccc(C(F)(F)F)c3)CC1)CC2 (stereo not drawn) [Compound 2]; 100

I: COc1ccc2c(c1)CC(N1CCN(c3ccccc3OC)CC1)CC2 (stereo not drawn) [Compound 7]
II: COc1ccc2c(c1)CCC(N1CCN(c3ncccn3)CC1)C2 (stereo not drawn) [Compound 11]
INPUT: Would you let me know which has the greater inhibition at 1 µM value, I or II ? Answer with the label corresponding to your selection.
OUTPUT: I

---

Biological target: 5-HT-1A serotonin receptor (Rattus norvegicus, UniProt P19327)
Construct: 44: 1685-1696, 1985; from tissue
Assay: displacement of [3H]8-OH DPAT from the 5-HT-1A serotonin receptor
Type: binding
Conditions: 1 μM; [3H]8-OH DPAT; read-out: % Inhibition 1 μm 5 HT1A
recorded.endpoint: inhibition at 1 µM (%)

Oc1cccc2c1CC(N1CCN(c3ncccn3)CC1)CC2 (centres unmarked); 91
COc1ccc2c(c1)CC(N1CCN(c3ncccn3)CC1)CC2 (centres unmarked); 83
Oc1ccc2c(c1)CCC(N1CCN(c3cccc(C(F)(F)F)c3)CC1)C2 (centres unmarked); 87

a: COc1ccc2c(c1)CCC(N1CCN(c3cccc(C(F)(F)F)c3)CC1)C2 (centres unmarked)
b: COc1ccccc1N1CCN(C2CCc3cccc(OC)c3C2)CC1 (centres unmarked)
INPUT: Sort a and b by inhibition at 1 µM descending and give the first. Return value: the label identifying the chosen record.
OUTPUT: a
